All figures here come from patent US10172859B2.

target: DNA-PK/protein complex (Homo sapiens (Human), UniProt P78527); assay: DNA-PK assay (biochemical), flashplate kinase assay; settings: enzymatic, 5 μM ATP
pIC50: −log10 of the molar value.
I'd appreciate it if you could supply pIC50 values for the items below.

{"columns": ["COMPOUND", "TARGET_ENTITY", "pIC50"],
 "data": [
  ["COc1nnc(Cl)cc1C(O)c1ccc(F)c(-c2ncnc3cc(N4CCOCC4)ccc23)c1 (centres unmarked) [Example 9]", "DNA-PK/protein complex (Homo sapiens (Human), UniProt P78527)", "8.15 to 8.52"]
]}

Which value of pIC50 has been reported for Cn1nccc1C(O)c1ccc(F)c(-c2nc(Cl)nc3cc(N4CCOCC4)ccc23)c1 (centres unmarked) [Example 214] in the records?
8.15 to 8.52
